All figures here come from ChEMBL document CHEMBL3044696.

Test system: Escherichia coli
assay-comment: Antibacterial activity against Escherichia coli ATCC 10536 assessed as growth inhibition at 25 ug/disk after 24 hr by Kirby-Bauer disk diffusion method
Type: functional
condition-details: ATCC 10536, 24 h, read-out: DIZ
Give zone of inhibition at 25 µg/disc for every item shown.
A number alone suffices; assume mm.

Q: Recorded zone of inhibition at 25 µg/disc for CN(C)c1ccc(C2SCCC(=O)N2CCCNc2ccnc3cc(Cl)ccc23)cc1 (configuration not stated) with Escherichia coli, please?
A: 14.3

Q: Lab note: need zone of inhibition at 25 µg/disc with Escherichia coli for entry CCC1SCCC(=O)N1CCCNc1ccnc2cc(Cl)ccc12 (configuration not stated) , please look it up.
A: 13.7

Q: // lookup zone of inhibition at 25 µg/disc | system=Escherichia coli | key= COc1ccc(C2SCCC(=O)N2CCCNc2ccnc3cc(Cl)ccc23)cc1 (configuration not stated)
A: 14.2

Q: I'm curious: which zone of inhibition at 25 µg/disc was measured for Cc1ccc(C2SCCC(=O)N2CCCNc2ccnc3cc(Cl)ccc23)s1 (configuration not stated) tested on Escherichia coli?
A: 14.2

Q: Missing value: zone of inhibition at 25 µg/disc, Escherichia coli, entry O=C1CCSC(c2ccccc2F)N1CCCNc1ccnc2cc(Cl)ccc12 (configuration not stated) . Fill in?
A: 14.3

Q: What zone of inhibition at 25 µg/disc appears in the records for this compound with Escherichia coli? O=C1CCSC(c2ccco2)N1CCCNc1ccnc2cc(Cl)ccc12 (configuration not stated)
A: 14

Q: GET /values?readout=zone of inhibition at 25 µg/disc&system=Escherichia coli&item= O=C1CCSC(c2cccc(O)c2)N1CCCNc1ccnc2cc(Cl)ccc12 (configuration not stated)
A: 13.9

* * *

Tested on: Plasmodium falciparum
assay-comment: Antimalarial activity against chloroquine-sensitive Plasmodium falciparum 3D7 infected human RBC assessed as dead ring and trophozoite stage of parasite at 50 ug/mL after 40 hr by Giemsa staining-based light microscopic analysis relative to control
Format: functional
property-measured: Activity (%)
Numeric answer only, unit % assumed.

Q: Could you tell me which Activity is on file for Cc1ccc(C2SCCC(=O)N2CCCNc2ccnc3cc(Cl)ccc23)s1 (configuration not stated) ?
A: 22

Q: Reported Activity, molecule O=C1CCSC(c2ccccc2F)N1CCCNc1ccnc2cc(Cl)ccc12 (configuration not stated) : ____
A: 39

Q: I'd like to know its Activity. The molecule in question is CN(C)c1ccc(C2SCCC(=O)N2CCCNc2ccnc3cc(Cl)ccc23)cc1 (configuration not stated)
A: 25

Q: Find the recorded Activity belonging to COc1ccc(C2SCCC(=O)N2CCCNc2ccnc3cc(Cl)ccc23)cc1 (configuration not stated) and report it.
A: 32

Q: # input molecule: O=C1CCSC(c2cccc(O)c2)N1CCCNc1ccnc2cc(Cl)ccc12 (configuration not stated) ; wanted: its Activity
A: 39.5

Q: Entry O=C1CCSC(c2ccco2)N1CCCNc1ccnc2cc(Cl)ccc12 (configuration not stated) has what Activity?
A: 38.5

Q: I'd like to know its Activity. The molecule in question is CCC1SCCC(=O)N1CCCNc1ccnc2cc(Cl)ccc12 (configuration not stated)
A: 18.5

* * *

Tested on: Staphylococcus aureus
assay-comment: Antibacterial activity against Staphylococcus aureus ATCC BAA 1026 assessed as growth inhibition at 25 ug/disk after 24 hr by Kirby-Bauer disk diffusion method
Type: functional
condition-details: ATCC BAA 1026, 24 h, read-out: DIZ
property-measured: zone of inhibition at 25 µg/disc (mm)
The answer is to be given in mm; state only the numeric part.

Q: Quick one: zone of inhibition at 25 µg/disc for O=C1CCSC(c2ccccc2F)N1CCCNc1ccnc2cc(Cl)ccc12 (configuration not stated) ?
A: 14.2

Q: // returns reported zone of inhibition at 25 µg/disc for input O=C1CCSC(c2cccc(O)c2)N1CCCNc1ccnc2cc(Cl)ccc12 (configuration not stated)
A: 14.3

Q: Entry under review: COc1ccc(C2SCCC(=O)N2CCCNc2ccnc3cc(Cl)ccc23)cc1 (configuration not stated) . Reported zone of inhibition at 25 µg/disc?
A: 14.1

Q: Reported zone of inhibition at 25 µg/disc, compound CN(C)c1ccc(C2SCCC(=O)N2CCCNc2ccnc3cc(Cl)ccc23)cc1 (configuration not stated) : ____
A: 13.9

Q: Request the reported zone of inhibition at 25 µg/disc associated with O=C1CCSC(c2ccco2)N1CCCNc1ccnc2cc(Cl)ccc12 (configuration not stated)
A: 14.3

Q: Fill blank: measured zone of inhibition at 25 µg/disc of the compound CCC1SCCC(=O)N1CCCNc1ccnc2cc(Cl)ccc12 (configuration not stated) is ____.
A: 12.9

Q: Which zone of inhibition at 25 µg/disc reading was recorded for the compound Cc1ccc(C2SCCC(=O)N2CCCNc2ccnc3cc(Cl)ccc23)s1 (configuration not stated) ?
A: 14
